Value source: patent US20250332300A1

SYSTEM UNDER TEST: mouse HER2 (23-653) (Mus musculus)
ASSAY SUMMARY: Surface plasmon resonance (SPR) for assessment of peptide affinity, mouse HER2
Type: binding
Set-up: mouse HER2 (23-653) using a Cy5 labeled peptide as a probe; made in house
Counter-ions that a name gives are not always drawn. Starred links: 1 amine or outer side, 2 acyl side, 3 side chain; linkers in the order of their positions; H or OH if unused. Positions of bridges follow the written chain, without caps; N, C: chain ends. Non-standard residues stand in square brackets, D forms with d. Residues, ends and D or L forms follow the SMILES beside them. Trp(5-OH) = N[C@@H](Cc1c[nH]c2ccc(O)cc12)C(=O)O; NMePhe(4-F) = CN[C@@H](Cc1ccc(F)cc1)C(=O)O; NMehPhe = CN[C@@H](CCc1ccccc1)C(=O)O; X3 = NC[C@H](CCC(=O)[*:2])C(=O)[*:1]; NMeE = CN[C@@H](CCC(=O)O)C(=O)O; Gly(cPr) = N[C@H](C(=O)O)C1CC1; NMeDap = CN[C@@H](CN)C(=O)O; NMeS = CN[C@@H](CO)C(=O)O; Dap = NC[C@H](N)C(=O)O
QUANTITY: pKd
Scale explanation: pKd corresponds to minus log10 of a concentration expressed in moles per litre.

COMPOUND: CN1C(=O)[C@H](CO)NC(=O)[C@H](Cc2ccc(O)cc2)NC(=O)[C@@H](N)CC(=O)NC[C@@H](C(=O)N(C)[C@@H](Cc2ccc(F)cc2)C(N)=O)N(C)C(=O)[C@H](C2CC2)NC(=O)[C@H](Cc2c[nH]c3ccccc23)NC(=O)[C@H](Cc2c[nH]c3ccc(O)cc23)NC(=O)[C@H](CO)N(C)C(=O)[C@@H]1CCc1ccccc1 [Example A37, TFA salt] (H-DYS[NMehPhe][NMeS][Trp(5-OH)]W[Gly(cPr)][NMeDap][NMePhe(4-F)]-NH2; lactam 1-9)
REPORTED MEASUREMENT: 6.67

COMPOUND: CN1C(=O)[C@H](CO)NC(=O)[C@H](Cc2ccc(O)cc2)NC(=O)[C@@H](N)CNC(=O)CC[C@@H](C(=O)N(C)[C@@H](Cc2ccc(F)cc2)C(N)=O)N(C)C(=O)[C@H](C2CC2)NC(=O)[C@H](Cc2c[nH]c3ccccc23)NC(=O)[C@H](Cc2c[nH]c3ccc(O)cc23)NC(=O)[C@H](CO)N(C)C(=O)[C@@H]1CCc1ccccc1 [Example A34, TFA salt] (H-[Dap]YS[NMehPhe][NMeS][Trp(5-OH)]W[Gly(cPr)][NMeE][NMePhe(4-F)]-NH2; lactam 1-9)
REPORTED MEASUREMENT: 7.19

COMPOUND: CN1C(=O)[C@H](CO)NC(=O)[C@H](Cc2ccc(O)cc2)NC(=O)[C@H](CN)CCC(=O)NC[C@@H](C(=O)N(C)[C@@H](Cc2ccc(F)cc2)C(N)=O)N(C)C(=O)[C@H](C2CC2)NC(=O)[C@H](Cc2c[nH]c3ccccc23)NC(=O)[C@H](Cc2c[nH]c3ccc(O)cc23)NC(=O)[C@H](CO)N(C)C(=O)[C@@H]1CCc1ccccc1 [Example A39, TFA salt] (YS[NMehPhe][NMeS][Trp(5-OH)]W[Gly(cPr)][NMeDap][NMePhe(4-F)]-NH2; linker N-8 via X3)
REPORTED MEASUREMENT: 6.79

Kindly review the next compound as well.
Qu. I would be grateful if you could share the reported pKd for CC(=O)NCCCC[C@H]1C(=O)N[C@@H](Cc2c[nH]c3ccc(O)cc23)C(=O)N[C@@H](Cc2c[nH]c3ccccc23)C(=O)N[C@@H](C2CC2)C(=O)N(C)[C@H](C(=O)N(C)[C@@H](Cc2ccc(F)cc2)C(N)=O)CNC(=O)CC[C@H](N)C(=O)N[C@@H](Cc2ccc(O)cc2)C(=O)N[C@@H](CO)C(=O)N(C)[C@@H](CCc2ccccc2)C(=O)N1C [Example A32, TFA salt] .
Ans. 8.66
